measuredOn: IRAK-M (Homo sapiens)
Sequence (Q9Y616 whole entry): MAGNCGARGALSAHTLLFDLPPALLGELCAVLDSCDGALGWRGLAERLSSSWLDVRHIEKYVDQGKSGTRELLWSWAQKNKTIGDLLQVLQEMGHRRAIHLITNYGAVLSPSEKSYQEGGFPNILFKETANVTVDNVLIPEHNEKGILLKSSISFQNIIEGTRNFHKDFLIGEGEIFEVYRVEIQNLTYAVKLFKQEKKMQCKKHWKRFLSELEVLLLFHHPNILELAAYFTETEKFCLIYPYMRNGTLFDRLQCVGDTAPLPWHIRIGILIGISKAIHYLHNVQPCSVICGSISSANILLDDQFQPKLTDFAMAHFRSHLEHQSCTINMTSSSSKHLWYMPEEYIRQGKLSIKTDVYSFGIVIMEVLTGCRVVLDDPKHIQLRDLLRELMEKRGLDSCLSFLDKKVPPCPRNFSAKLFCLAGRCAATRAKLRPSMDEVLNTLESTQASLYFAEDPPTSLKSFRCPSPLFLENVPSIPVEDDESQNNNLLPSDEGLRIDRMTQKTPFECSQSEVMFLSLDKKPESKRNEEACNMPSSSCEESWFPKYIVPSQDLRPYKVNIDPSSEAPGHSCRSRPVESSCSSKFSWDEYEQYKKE
experimentSummary: In vitro degradation activity of target protein (IRAK-M ELISA in THP1 cells)
Assay type: cell-based
Parameters: host or cells: THP1 cells
experimentalParameters: 24 hours, second symbol of cell, read-out: IRAK-M 50% degradation concentration (DC50 value)
readoutType: DC50

Sample answers from the record:
{"chemicalString": "CN[C@@H](C)C(=O)N[C@H](C(=O)N1CCN(C(=O)c2cc3cc(F)c(F)cc3n2CCOCCOCCOCCOc2cc(CN3CCC(Oc4ccnc5ccsc45)CC3)on2)CC1)C1CCCCC1", "measuredOn": "IRAK-M (Homo sapiens)", "DC50": "300 to 1000 nM"}
{"chemicalString": "CN[C@@H](C)C(=O)N[C@H](C(=O)N1CCN(C(=O)c2c(C)c3cc(F)ccc3n2CC(=O)N2CCC[C@H]2COc2cc(CN3CCC(Oc4ccnc5ccsc45)CC3)on2)CC1)C1CCCCC1", "measuredOn": "IRAK-M (Homo sapiens)", "DC50": "100 to 300 nM"}
{"chemicalString": "CN[C@@H](C)C(=O)N[C@H](C(=O)N1CCC[C@H]1c1nc(C(=O)c2cccc(OCCOCCOCCOc3cc(CN4CCC(Oc5ccnc6ccsc56)CC4)on3)c2)cs1)C1CCCCC1", "measuredOn": "IRAK-M (Homo sapiens)", "DC50": "300 to 1000 nM"}
{"chemicalString": "CN[C@@H](C)C(=O)N[C@H](C(=O)N1CCN(C(=O)c2c(Cl)c3ccccc3n2CC(=O)N2CCC[C@H]2COc2cc(CN3CCC(Oc4ccnc5ccsc45)CC3)on2)CC1)C1CCCCC1", "measuredOn": "IRAK-M (Homo sapiens)", "DC50": "300 to 1000 nM"}

Please turn your attention to the following entry.
Input: Param readout = DC50; param system = IRAK-M (Homo sapiens); param query = CN[C@@H](C)C(=O)N[C@H](C(=O)N1CCN(C(=O)c2c(C)c3ccccc3n2CC(=O)N(C)CCOCCOCCOCCOc2cc(CN3CCC(Oc4ccnc5ccsc45)CC3)on2)CC1)C1CCCCC1 ; response: value
Output: 300 to 1000 nM

###

measuredOn: human XIAP_BIR3 domain purified protein (Homo sapiens)
Construct: purchased R & D
Sequence (P98170 252-356 limits assumed): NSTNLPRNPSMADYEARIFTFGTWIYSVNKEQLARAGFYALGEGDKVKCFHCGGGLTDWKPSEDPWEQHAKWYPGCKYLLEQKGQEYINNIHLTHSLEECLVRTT
experimentSummary: XIAP binding inhibitory activity (HTRF, b-Smac ligand)
experimentalParameters: concentration of the test compound 3 μM; first symbol of cell; read-out: XIAP binding inhibition rate
Structures can show the parent of a compound that is named as a salt.
readoutType: inhibition at 3 µM

{"compound": "CN[C@@H](C)C(=O)N[C@H](C(=O)N1CCN(C(=O)c2cc3cc(F)ccc3n2CC(=O)N2CCOC[C@H]2COc2cc(CN3CCC(Oc4ccnc5ccsc45)CC3)on2)[C@@H](C)C1)C1CCCCC1", "inhibition at 3 µM": "> 25%"}
{"compound": "CN[C@@H](C)C(=O)N[C@H](C(=O)N1CCN(C(=O)c2c(OCCOCCOCCOc3cc(CN4CCC(Oc5ccnc6ccsc56)CC4)on3)c3cc(F)c(F)cc3n2C)CC1)C1CCCCC1 [Example 21, hydrochloride]", "inhibition at 3 µM": "25 to 50%"}
{"compound": "CN[C@@H](C)C(=O)N[C@H](C(=O)N1CCN(C(=O)c2c(OCCOCCOc3cc(CN4CCC(Oc5ccnc6ccsc56)CC4)on3)c3cc(F)c(F)cc3n2C)CC1)C1CCCCC1", "inhibition at 3 µM": "25 to 50%"}
{"compound": "CN[C@@H](C)C(=O)N[C@H](C(=O)N1CCN(C(=O)c2c(OCCOCCOCCOCCOc3cc(CN4CCC(Oc5ccnc6ccsc56)CC4)on3)c3cc(F)c(F)cc3n2C)CC1)C1CCCCC1", "inhibition at 3 µM": "25 to 50%"}
{"compound": "CN[C@@H](C)C(=O)N[C@H](C(=O)N1CCN(C(=O)c2cc3cc(F)c(F)cc3n2CCOCCOCCOc2cc(CN3CCC(Oc4ccnc5ccsc45)CC3)on2)CC1)C1CCCCC1", "inhibition at 3 µM": "> 25%"}

Input: Which inhibition at 3 µM is listed for CN[C@@H](C)C(=O)N[C@H](C(=O)N1CCN(C(=O)c2cc3cc(F)c(F)cc3n2CC(=O)N2CCC[C@@H]2COc2cc(CN3CCC(Oc4ccnc5ccsc45)CC3)on2)CC1)C1CCCCC1 ?
Output: 25 to 50%

Input: Dear colleague, I am looking for the recorded inhibition at 3 µM of the following compound: CN[C@@H](C)C(=O)N[C@H](C(=O)N1CCN(C(=O)c2cc3cc(F)ccc3n2CC(=O)N2C[C@@H](O)C[C@H]2COc2cc(CN3CCC(Oc4ccnc5ccsc45)CC3)on2)[C@@H](C)C1)C1CCCCC1
Output: > 25%

Input: Quick one: inhibition at 3 µM for CN[C@@H](C)C(=O)N[C@H](C(=O)N1CCN(C(=O)c2cc3cc(F)ccc3n2CC(=O)N2CCOC[C@@H]2COc2cc(CN3CCC(Oc4ccnc5ccsc45)CC3)on2)[C@@H](C)C1)C1CCCCC1 ?
Output: > 25%
